Target: hKv7.2/hKv7.3 (Homo sapiens, UniProt O43525+O43526)
Construct: P2A remnant (self-cleaving peptide between Kv7.3 and Kv7.2) (C)
Test: Thallium influx assay for potassium channel activation
Conditions: HEK-hKv7.2/hKv7.3 cells; FLIPR Potassium Assay kit; AUC readout normalized to a reference compound
Provide the recorded EC50 for the entries that follow.
Numbers only, in nM.

Examples with their reported EC50 follow.
{"molecule": "C[C@H](NC(=O)CC(O)C(C)(C)C)c1cccc(OCC(F)(F)F)c1 (single isomer, unassigned) [Example 2a]", "EC50 (nM)": 460}
{"molecule": "C[C@H](NC(=O)CC(C)(O)C(F)(F)F)c1cccc(OCC(F)(F)F)c1 (single isomer, unassigned) [Example 19b]", "EC50 (nM)": 3400}
{"molecule": "C[C@H](NC(=O)C[C@@](C)(O)C1(F)CC1)c1cccc(OC(F)(F)F)c1 (single isomer, unassigned) [Example 15a]", "EC50 (nM)": 2100}
{"molecule": "C[C@H](NC(=O)CC(O)C(C)(C)C)c1cccc(OC(F)F)c1 (single isomer, unassigned) [Example 3b]", "EC50 (nM)": 1500}

Each molecule below has a reported value. Please supply its EC50.
1. C[C@H](NC(=O)CC(O)C(C)(C)C)c1cccc(C(F)(F)F)c1 (single isomer, unassigned) [Example 4b]
2. CC(C)C(O)CC(=O)N[C@@H](C)c1cccc(OCC(F)(F)F)c1 (single isomer, unassigned) [Example 12b]
3. CC(C)C(O)CC(=O)N[C@@H](C)c1cccc(OC(F)(F)F)c1 (single isomer, unassigned) [Example 20b]

[1200, 5900, 14000]
